Measurement Label: melting point

Compound: O=C(CS(=O)Cc1ccco1)NCCCOc1cccc(C2OCCO2)c1 (stereo unspecified)
melting point: 95.3 to 96.1 °C
//
Compound: COC(=O)c1c(Cl)cc(Cl)cc1NC(=O)CSc1ccc(O)cc1
melting point: 149 to 151 °C
//
Compound: Cn1nc(CNS(C)(=O)=O)nc1NCCCOc1cccc(CN2CCCCC2)c1
melting point: 117 to 118 °C
//
Compound: O=S1(=O)CCCSC(S)=N1
melting point: 134 °C
//
Compound: N#Cc1c[nH]cc1-c1cccc(C(F)(F)F)c1Cl
melting point: 82 °C
//
Compound: CC(C)(C)c1cccc(S(=O)(=O)n2c(Cc3ccc(C(=O)O)cc3F)cc3cc(C(F)(F)F)ccc32)c1
melting point: 177 °C
//
Compound: COc1ccc(-c2coc3ccc(-c4nnc(SCc5cccc(Cl)c5)o4)cc23)cc1
melting point: 155 to 156 °C
//
Compound: COc1ccc(CC2=Cc3ncccc3Nc3cccnc32)cc1
melting point: 124 to 127 °C
//
Compound: CCOC(=O)c1cc2c3n(ccc-2n1)C(Br)C(C)=N3 (stereo unspecified)
melting point: 224 to 226 °C
//
Compound: Nc1ccc2c(c1)C=C(C(=O)O)C(C(F)(F)F)O2 (stereo unspecified)
melting point: 126 to 133 °C

# return recorded melting point for input CP(=O)(O)CC(F)CN (stereo unspecified)
78 to 84 °C

Provide one value: measured melting point of Cc1ccc(C(=O)Oc2ccc3c(OC(=O)c4ccc(C)c(O)c4)c4ccccc4cc3c2OC(=O)c2ccc(C)c(O)c2)cc1O
251 °C

Specify melting point for CC1N=C(N(C)N)NN=C1c1ccccc1 (stereo unspecified) and stop.
140 to 141 °C

Give the reported melting point for this compound. CCCc1ccc(-c2c3ccccc3c(-c3ccc(CCC)cc3)c3cc(Cl)ccc23)cc1
225 to 227 °C

# return recorded melting point for entry CSc1sc(-c2ccccn2)c2c1-c1oncc1C(C)(C)C2
153 to 155 °C

Give reported melting point value for CCOC(=O)/C(=C/c1ccc(OC)c(OC2CCCC2)c1)c1ccncc1
109 to 110 °C

Supply measured melting point of C[C@H](O)[C@@H](Nc1ccc(C#N)c(Cl)c1Cl)c1nnc(-c2ccccc2)o1 in your reply.
156 °C

---

Measurement Label: melting point

Molecule: Cc1cc2c(c3ccc(=O)[nH]c13)OC(CNC(=O)CCNC(=O)OCc1ccccc1)C2 (centres undefined)
melting point: 233 to 234 °C

Molecule: Cc1ccc2c3c(ccc2n1)OC[C@H](CN1CCN(c2cccc(Cl)c2)CC1)O3
melting point: 110 to 112 °C

Molecule: Cc1ccc(-c2c3n(c(=O)c4ncccc24)CCCN(Cc2cc(C(F)(F)F)cc(C(F)(F)F)c2)C3=O)cc1
melting point: 194 to 195 °C

Molecule: COc1c(C)c(N2CCN(c3ccc(OC(F)(F)F)cc3)CC2)c(C)c2c1OC(C)(C)C2
melting point: 162 to 164 °C

Molecule: O=C(O)c1ccc([N+](=O)[O-])cn1
melting point: 210 to 211 °C

Read the entry CC(C)(C)c1cc(CN2CC(O)C2)cc(C(C)(C)C)c1O and write its reported melting point.
139 to 142 °C

Output melting point of CSCc1c(N)c([N+](=O)[O-])cc(F)c1F
110 to 112 °C

Answer with the recorded melting point for the molecule listed here: COC(=O)Cn1c(C(=O)Nc2nc(-c3cc(OC)c(Cl)cc3OC)c(CC3CCCCC3)s2)cc2cc(C)cc(C)c21
143 to 145 °C

Give the reported value of melting point for this record: O=C1CCC(N2Cc3c(OCc4ccc(CN5CCOCC5)c(F)c4)cccc3C2=O)C(=O)N1 (centres undefined)
263 to 265 °C

---

Quick list: melting point per entry.

# example entries with known answers
Compound: CCOC(=O)CCc1cc(C(=O)c2cccc(C(=O)OCC)c2)ccc1O
Measurement Label: melting point
Result: 68 to 70 °C
//
Compound: CCOC(=O)C(=NOC)c1ccccc1CBr
Measurement Label: melting point
Result: 80 to 81 °C
//
Compound: COC(=O)C1CCC2C3CCC4CC=CCC4(C)C3C(NCCC(C)C)CC12C (stereo unspecified)
Measurement Label: melting point
Result: 150 to 152 °C
//
Compound: Nc1nc(COc2cccc(Cl)c2Cl)nc2nccnc12
Measurement Label: melting point
Result: 216 to 218 °C
//
Compound: N#CCC=Cc1ccc(Cc2ccc(C=CCC#N)cc2)cc1
Measurement Label: melting point
Result: 128 to 130 °C
//
Compound: CCC1(CCSC(C)=O)C(=O)N2CCCC(C(=O)O)N2C1=O (stereo unspecified)
Measurement Label: melting point
Result: 110 to 111 °C
//
Compound: CCOC(=O)c1nc2ccc(OC)cc2[nH]c1=O
Measurement Label: melting point
Result: 229 °C
//
Compound: NC(=O)c1ccc(C(F)(F)F)c(Br)c1
Measurement Label: melting point
Result: 148 to 150 °C
//
Compound: CCOC(=O)c1cc(NCc2c(C)cccc2CC)c2nc(COC)n(C)c2c1
Measurement Label: melting point
Result: 106 to 107 °C
//
Compound: CCCOc1ccc(CN/C=C2\C(=O)NC(=O)c3ccc(-c4ccc(F)cc4)cc32)cc1O
Measurement Label: melting point
Result: 194 to 195 °C

Give a short answer stating reported melting point for COc1cc(-c2n[nH]c(SC)c2C)c(F)cc1Cl .
95 to 100 °C

Given the compound CCCCCCCCCCCCCCOC(=O)CCCCc1cc(OC(C)=O)c(OC(C)=O)c([N+](=O)[O-])c1 , write its reported melting point.
46 to 47 °C

Quick one: give measured melting point for N#Cc1ccccc1Nc1ccccc1[N+](=O)[O-]
134 to 138 °C

Please report melting point for the following compound: COc1ccc(S(=O)(=O)c2cnc(C)nc2Cc2c(C)cc(C)cc2C)cc1
150 to 152 °C

Consider the compound COc1cc2c(cc1Nc1ncc(Cl)c(NC3(C(=O)NCC#N)CC3)n1)CCN(CC(=O)N(C)C)CC2 . State its measured melting point.
120 to 128 °C

Annotate the compound CCC(=O)NCC[C@@H]1CCc2cc(Br)c3c(c21)CCO3 with its measured melting point.
129 to 131 °C

Read the entry CC(C#N)(Sc1nc2ccccc2s1)c1ccc(C(=O)c2cccs2)cc1 (stereo unspecified) and write its reported melting point.
104 to 107 °C

Specify measured melting point for CCN(CC)CCNC(=O)N1CCCC(S(=O)(=O)c2ccc(Cl)cc2)C1 (stereo unspecified) .
141 to 142 °C

Given Cc1c(NC(=O)CCCCc2ccc(F)cc2)ccc2cc(CN3CCCC3)cnc12 , respond with its melting point.
137 to 138 °C

Read the entry COc1cccc(CC(=O)N[C@H]2N=C(c3ccccc3)c3ccccc3N(C)C2=O)c1 and write its reported melting point.
198 to 199 °C

Indicate the recorded melting point value for this compound: c1ccc(-n2c(-c3cccc(OCCN4CCCCC4)c3)nc3ccccc32)cc1
68 °C

---

Measurement Label: melting point

Consider the reported melting point for these compounds:
Compound: O=C(O)c1cccc2nc3ccc4[nH]ncc4c3nc12
melting point: 305 to 310 °C
--
Compound: CCN(CC)c1ccc(C(=O)O)nc1
melting point: 146 to 148 °C
--
Compound: CCOC(=O)C1=CC=C2C(=CNN2CC)N1NN=C(C)CC#N
melting point: 190 to 191 °C
--
Compound: CNc1ncc2c(n1)-c1ccc(Cl)cc1C(c1ccccc1F)=NC2
melting point: 172 to 179 °C
--
Compound: O=CN(O)C(CCO)CS(=O)(=O)c1ccc(-c2ccc(Cl)cc2)cc1 (stereo not given)
melting point: 158 to 159 °C
--
Compound: CCOC(=O)C1=C(C)NC(=S)N(C(=O)OCC)C1c1ccccc1OCc1ccccc1 (stereo not given)
melting point: 153 to 155 °C
--
Compound: O=C(O)CCc1oc(Sc2nccn2-c2ccccc2)nc1-c1ccc(Cl)cc1
melting point: 185 to 187 °C
--
Compound: CCOC(=O)CCc1cc(F)c(N2CCNCC2)nc1Nc1ccc(F)cc1F
melting point: 121 to 123 °C

For O=C1c2ccccc2C(=O)N1CCc1nnc2n1-c1ccc(Cl)cc1C(c1ccccc1)=NC2 , write its melting point.
133 to 134 °C

Hello, please tell me recorded melting point for this one: CC(C)[C@H](NC(=O)OCC1c2ccccc2-c2ccccc21)C(=O)N[C@@H](C)C(=O)O
122 to 123 °C

---

Measurement Label: melting point

Check out these entries, answers already filled in.
Compound: COc1cc(-c2ccc(N3CCCN(c4ccc(-c5cc(OC)c(O)c(OC)c5)cn4)CC3)nc2)cc(OC)c1O
Measurement Label: melting point
Result: 200 to 202 °C
//
Compound: Cc1cccnc1C(=O)c1[nH]c2cc(Cl)ccc2c1CC(=O)O
Measurement Label: melting point
Result: 195 to 196 °C
//
Compound: CCOC(=O)c1cc2cc(Oc3ccc(S(C)(=O)=O)cc3)cc(OCc3nccn3C)c2[nH]1
Measurement Label: melting point
Result: 91 to 92 °C
//
Compound: COCn1c(C)nc2c3c(c(C(=O)N(C)C)cc21)CCC(c1ccccc1)O3 (centres undefined)
Measurement Label: melting point
Result: 213 to 215 °C
//
Compound: N#Cc1cc(-c2ccccc2)[nH]c1Sc1ccncc1
Measurement Label: melting point
Result: 172 to 174 °C

Given the compound O=C(O)c1ccc(Cl)nc1C(F)(F)F , write its reported melting point.
154 to 156 °C

Please supply the value of reported melting point for the item O=C(CCl)NCCCn1cc(-c2ccccc2)c2ccccc2c1=O
140 °C

Identify the reported melting point for the following entry. COc1cc(C(C)=O)ccc1OCCCN1CCC(C(O)(c2ccc(F)c(F)c2)c2ccc(F)c(F)c2)CC1
143 to 146 °C

State its melting point for this compound: CS(=O)(=O)c1ccc(-c2c(-c3ccc(F)cc3)c(=O)n3n2Cc2c(Cl)cccc2-3)cc1
237 to 240 °C
